- assay-target: human β3-AR (Homo sapiens)
- Construct: Full-length β3-AR clones (402 amino acids) containing the last 6 amino acids of hβ3-AR; expressed in transfected cells; host or cells: CHO (Chinese hamster ovary) cells
- test-description: cAMP accumulation (SPA) in CHO cells transfected with human β3-AR
- Format: cell-based
measured-quantity: EC50 (nM)
Quick note: give the figure in nM, leave out the unit.

Answer with the recorded EC50 of CCCCNc1c(Nc2ccc(CC(C)NC[C@H](O)c3cccc(Cl)c3)cc2)c(=O)c1=O (stereo partly shown) [Compound 1] only. 115

---

- assay-target: human β3-AR (Homo sapiens, UniProt P13945)
- Construct: Full-length β3-AR clones (402 amino acids) containing the last 6 amino acids of hβ3-AR; expressed in transfected cells; host or cells: CHO (Chinese hamster ovary) cells
- Sequence (P13945 whole entry): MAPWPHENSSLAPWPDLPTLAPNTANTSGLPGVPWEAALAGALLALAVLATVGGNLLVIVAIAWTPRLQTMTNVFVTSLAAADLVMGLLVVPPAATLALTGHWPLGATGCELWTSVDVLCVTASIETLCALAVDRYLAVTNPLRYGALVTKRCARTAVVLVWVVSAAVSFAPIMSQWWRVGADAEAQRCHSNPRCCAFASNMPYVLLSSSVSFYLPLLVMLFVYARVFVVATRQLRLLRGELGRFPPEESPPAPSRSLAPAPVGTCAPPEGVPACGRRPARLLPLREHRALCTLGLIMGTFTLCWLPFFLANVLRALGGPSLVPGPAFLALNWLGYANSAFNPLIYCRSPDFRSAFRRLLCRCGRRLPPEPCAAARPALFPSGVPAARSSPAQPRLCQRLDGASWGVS
- test-description: cAMP accumulation (SPA) in CHO cells transfected with human β3-AR
- Type: cell-based
- experimental-conditions: maximal response of compound relative to maximal response of isoproterenol at 10^−5 M; CHO cells transfected with human β3-AR
Class membership depends on IA(β3) alone; the intervals are bin 1 (below 0.5), bin 2 (0.5 to below 1), bin 3 (1 or more)

Solved cases below.
compound="CCCCCCCCCCNc1c(Nc2ccc(CC(C)NC[C@H](O)COc3ccccc3)cc2)c(=O)c1=O (stereo partly drawn)" assigned_category="bin 2"
compound="CCCCCCCCNc1c(Nc2ccc(CC(C)NC[C@H](O)COc3cccc4[nH]c5ccccc5c34)cc2)c(=O)c1=O (stereo partly drawn)" assigned_category="bin 1"
compound="CCCCNc1c(Nc2ccc(CC(C)NC[C@H](O)c3cccc(Cl)c3)cc2)c(=O)c1=O (stereo partly drawn)" assigned_category="bin 1"

Read the next record carefully.
Kindly state the category for this compound: CCCCCCCCNC1=NS(=O)(=O)N=C1Nc1ccc(CCNC[C@H](O)COc2ccc(O)cc2)cc1 bin 2

---

measured-quantity: melting point

Identify measured melting point associated with CCCCCCCCCCNC1=NS(=O)(=O)N=C1Nc1ccc(CC(C)NC[C@H](O)c2ccc(O)c(NS(C)(=O)=O)c2)cc1 (stereo partly shown) 120 °C (dec.)

Return melting point (reported value) for this molecule: CCCCNc1c(Nc2ccc(CC(C)NC[C@H](O)c3cccc(Cl)c3)cc2)c(=O)c1=O (stereo partly shown) 176 to 179 °C

Determine from records and report melting point for CCCCCCNC(=O)Nc1ccc(C2(CNC3=NS(=O)(=O)N=C3Nc3ccc(CC(C)(C)NC[C@H](O)COc4ccc(O)cc4)cc3)CCCC2)cc1 154.5 to 158.5 °C

---

measured-quantity: melting point

Use the examples below as a reference point.
compound="CCCCCCCCNC1=NS(=O)(=O)N=C1Nc1ccc(CC(C)NC[C@H](O)COc2ccc(O)cc2)cc1 (stereo partly shown) [Compound 12]" measured_quantity="melting point" value="203.5 to 206 °C"
compound="CCCCCCCCNC1=NS(=O)(=O)N=C1Nc1cccc(CC(C)NCC(O)c2cccc(Cl)c2)c1 (stereo not shown) [Compound 2]" measured_quantity="melting point" value="90 to 96 °C"
compound="CC(C)(Cc1ccc(NC2=NS(=O)(=O)N=C2NCC(c2ccccc2)c2ccccc2)cc1)NC[C@H](O)COc1ccc(OCc2ccccc2)cc1 [Compound 28]" measured_quantity="melting point" value="222.5 to 224.5 °C (dec.)"

For CCCCCCCCCCNc1c(Nc2ccc(CC(C)NC[C@H](O)COc3ccc(O)cc3)cc2)c(=O)c1=O (stereo partly shown) [Compound 15] , write its melting point. 130 to 132 °C

Please report the measured melting point for CCCCCCCCNc1c(Nc2ccc(CC(C)NC[C@H](O)c3cccc(Cl)c3)cc2)c(=O)c1=O (stereo partly shown) [Compound 10] 173 to 175 °C

Give the reported value of melting point for this record: CC(Cc1ccc(NC2=NS(=O)(=O)N=C2NCCc2ccc(F)cc2)cc1)NC[C@H](O)COc1ccc(O)cc1 (stereo partly shown) [Compound 37] 126 to 131 °C

Supply melting point value. Item: CCCCCCCCNC1=NS(=O)(=O)N=C1Nc1ccc(CC(C)NC[C@H](O)COc2cccc3[nH]c4ccccc4c23)cc1 (stereo partly shown) [Compound 21] 121 to 124 °C

---

Where a name gives a salt, the structure may show the parent alone.
Item-by-item account of melting point

compound="CCCCCCCCNC1=NS(=O)(=O)N=C1Nc1ccc(CC(C)NC[C@H](O)COc2ccccc2)cc1 (stereo partly shown)" measured_quantity="melting point" value="77 to 82 °C"
compound="CC(Cc1ccc(NC2=NS(=O)(=O)N=C2NCC2(c3ccccc3)CCCC2)cc1)NC[C@H](O)COc1ccc(OCc2ccccc2)cc1 (stereo partly shown)" measured_quantity="melting point" value="103 to 105 °C"
compound="CCCCCCCCNc1c(Nc2ccc(CC(C)NC[C@H](O)COc3cccc4[nH]c5ccccc5c34)cc2)c(=O)c1=O (stereo partly shown)" measured_quantity="melting point" value="125 to 131 °C"
compound="CCCCCCCCCCNC1=NS(=O)(=O)N=C1Nc1ccc(CC(C)NC[C@H](O)COc2ccc(O)cc2)cc1 (stereo partly shown) (as salt: HCl)" measured_quantity="melting point" value="146 to 155 °C"
compound="CCCCCCCCNC1=NS(=O)(=O)N=C1Nc1ccc(CC(C)NC[C@H](O)c2ccc(O)c(NS(C)(=O)=O)c2)cc1 (stereo partly shown)" measured_quantity="melting point" value="120 °C (dec.)"

Report melting point for CCCCCCCCCCNc1c(Nc2ccc(CCCNC[C@H](O)COc3cccc4[nH]c5ccccc5c34)cc2)c(=O)c1=O 225 °C

Write down melting point measured for item CCCCCCCCNC1=NS(=O)(=O)N=C1Nc1ccc(CC(C)(C)NC[C@H](O)COc2ccc(O)cc2)cc1 (as salt: HCl) 229.5 to 231.3 °C

Answer with reported melting point of CCCCCCCCCCNc1c(Nc2ccc(CC(C)NC[C@H](O)COc3ccccc3)cc2)c(=O)c1=O (stereo partly shown) 144 to 155 °C

Assign melting point to the following record: CC(Cc1ccc(NC2=NS(=O)(=O)N=C2NCC2(c3ccccc3)CCCC2)cc1)NC[C@H](O)COc1ccc(O)cc1 (stereo partly shown) (as salt: HCl) 162 to 165 °C

Tell me its melting point given COc1ccc(CCNC2=NS(=O)(=O)N=C2Nc2ccc(CC(C)NC[C@H](O)COc3ccc(O)cc3)cc2)cc1 (stereo partly shown) as the entry. 95 to 100 °C

---

Quick list: pEC50 per entry.
- assay-target: human β3-AR (Homo sapiens, UniProt P13945)
- Construct: Full-length β3-AR clones (402 amino acids) containing the last 6 amino acids of hβ3-AR; expressed in transfected cells; host or cells: CHO (Chinese hamster ovary) cells
- test-description: cAMP accumulation (SPA) in CHO cells transfected with human β3-AR
- Type: cell-based
- experimental-conditions: CHO cells transfected with human β3-AR; cAMP by SPA; 30 min at 37° C.; 10^−9 M to 10^−5 M; read-out: EC50(β3)
Please note pEC50 is a logarithmic value: minus log10 of concentration in mol/L. Answer with that number alone.

Some solved entries appear below for comparison.
compound=CC(C)(Cc1ccc(NC2=NS(=O)(=O)N=C2NCC(c2ccccc2)c2ccccc2)cc1)NC[C@H](O)COc1ccc(OCc2ccccc2)cc1 assay_target="human β3-AR (Homo sapiens, UniProt P13945)" measured_quantity=pEC50 value=5.85
compound="CCCCCCCCNC1=NS(=O)(=O)N=C1Nc1cccc(CC(C)NCC(O)c2cccc(Cl)c2)c1 (stereo not shown)" assay_target="human β3-AR (Homo sapiens, UniProt P13945)" measured_quantity=pEC50 value=6.70
compound="CCCCCCCCCCNc1c(Nc2ccc(CC(C)NC[C@H](O)COc3ccccc3)cc2)c(=O)c1=O (stereo partly shown)" assay_target="human β3-AR (Homo sapiens, UniProt P13945)" measured_quantity=pEC50 value=5.87

Proceed to the following item.
Note pEC50 for the compound shown: CCCCCCCCNC1=NS(=O)(=O)N=C1Nc1ccc(CC(C)(C)NC[C@H](O)COc2ccc(O)cc2)cc1 7.17

---

- assay-target: human β3-AR (Homo sapiens)
- Construct: Full-length β3-AR clones (402 amino acids) containing the last 6 amino acids of hβ3-AR; expressed in transfected cells; host or cells: CHO (Chinese hamster ovary) cells
- test-description: cAMP accumulation (SPA) in CHO cells transfected with human β3-AR
- Assay type: cell-based
- experimental-conditions: CHO cells transfected with human β3-AR; cAMP by SPA; 30 min at 37° C.; 10^−9 M to 10^−5 M; read-out: EC50(β3)
- Experimental: The ability of the compounds of this invention to treat or inhibit disorders related to insulin resistance or hyperglycemia was confirmed with representative compounds of this invention in the following standard pharmacological test procedures, which measured the binding selectivity of the β1-, β2-, and β3-AR. Binding to the receptors was measured in Chinese Hamster ovary (CHO) cells that were transfected with β1-, β2-, and β3-AR's. […]
The following compounds are listed with their measured pEC50 values.
# pEC50 is unitless: minus log10 of the molar concentration; print number only

compound="CCCCCCCCNc1c(Nc2ccc(CC(C)NC[C@H](O)c3cccc(Cl)c3)cc2)c(=O)c1=O (stereo partly shown)" measured_quantity=pEC50 value=7.06
compound="CCCCCCCCNC1=NS(=O)(=O)N=C1Nc1ccc(CC(C)NC[C@H](O)c2ccc(O)c(NS(C)(=O)=O)c2)cc1 (stereo partly shown)" measured_quantity=pEC50 value=8.70
compound="CCCCCCCCNc1c(Nc2ccc(CC(C)NC[C@H](O)COc3ccccc3)cc2)c(=O)c1=O (stereo partly shown)" measured_quantity=pEC50 value=7.09

Then there is this compound:
Find the measured pEC50 of CCCCCCCCNC1=NS(=O)(=O)N=C1Nc1ccc(CCNC[C@H](O)COc2ccc(OCc3ccccc3)cc2)cc1 [5 (step E)] and report it. 5.86
